Provenance of the data: PubChem BioAssay AID932

test: STAT1 signaling activators, primary screen, cell-based, HTS, luciferase reporter (AID 932); settings: NIH 3T3 STAT1-luciferase reporter, IFN-gamma, luminescence; at 5.5 µM; active compounds read high; 100% = IFN-gamma alone, no compound;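 also: raw ratio to IFN-gamma control signal so 100% means no change and 0% no light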
The whole screen tested about 200,000 compounds, of which about 5,100 (2.5%) were called active. The sample holds actives, similar compounds and a random draw of the others, so the mix is not that of the screen.
property: activation (% of control) (%)
Write the number in % without appending the unit.

Please review the entries below; each comes with its answer.
compound: O=c1oc(-c2ccco2)nc2sc3c(c12)CCCCC3
activation (% of control) (%): 110

compound: Cc1ccc(NC(=O)c2oc(=O)c3ccccc3c2-c2ccccc2)c(C)c1
activation (% of control) (%): 97.1

compound: O=C(CN1C(=O)c2cccc3cccc(c23)C1=O)N1CCCCC1
activation (% of control) (%): 89.3

Turning now to a further record.
Data request: So what does the record say about activation (% of control) for COc1ccc(S(=O)(=O)N2CCCCCC2)cc1C(=O)OCC(=O)Nc1cc(C)on1 ?
Data returned: 97

----------
assay: STAT1 signaling activators, primary screen, cell-based, HTS, luciferase reporter (AID 932); details: NIH 3T3 STAT1-luciferase reporter, IFN-gamma, luminescence; at 5.5 µM; active compounds read high; 100% = IFN-gamma alone, no compound;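 also: raw ratio to IFN-gamma control signal so 100% means no change and 0% no light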
Out of some 200,000 compounds screened, about 5,100 (2.5%) were called active. The full list was thinned out, with actives kept by preference.
# reported activation (% of control); entries follow

Data request: Suppose we examine the compound COc1ccccc1CNC(=O)c1ccc(SC)cc1OC ; what activation (% of control) value has been reported?
Data returned: 109% (inactive)

----------
experiment: STAT1 signaling activators, primary screen, cell-based, HTS, luciferase reporter (AID 932); conditions: NIH 3T3 STAT1-luciferase reporter, IFN-gamma, luminescence; at 5.5 µM; 100% = IFN-gamma alone, no compound;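 also: raw ratio to IFN-gamma control signal so 100% means no change and 0% no light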
About 5,100 (2.5%) of roughly 200,000 compounds were called active.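 How the source made its calls: active means activation above the screen-wide mean activation plus 3 SD (cut at about 130% in these data); inactive means the rest.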 Many of the other results were omitted from the sample, so actives are more common in it than they were.
One label from this list, please: active, inactive

Reference set (5 entries):
molecule: N#Cc1c(NC(=O)C2CC(Cl)=CCC2C(=O)O)sc2c1CCCCC2 (configuration not stated)
label: inactive
//
molecule: COC(=O)c1cccc([N+](=O)[O-])c1CS(=O)(=O)c1ccc(C)cc1
label: inactive
//
molecule: CNc1nc(Nc2ccc(C)c(Cl)c2)nc(N)c1[N+](=O)[O-]
label: active
//
molecule: COc1ccc(/C=N/Nc2nc3ccccc3c(=O)[nH]2)cc1
label: active
//
molecule: CCOC(=O)N1CCN(c2cc(C)c([N+](=O)[O-])cc2F)CC1
label: inactive

Data request: In this assay, the call recorded for N#Cc1c(NC(=O)C2CCCO2)sc2c1CCCCC2 (configuration not stated) was what?
Data returned: active

Data request: Please give the result for N#Cc1cccc(Nc2c3c(nc4ccccc24)CCCC3)c1 too.
Data returned: inactive

Data request: Repeat with O=c1c2ccccc2nc(N/N=C/c2ccccc2)n1O
Data returned: inactive

Data request: What would you report for C=CS(=O)c1sc(Cl)c(N2CCOCC2)c1[N+](=O)[O-] (configuration not stated) ?
Data returned: inactive

Data request: Same again, this time with Cc1c(/C=N/N2C(=O)C3C4C=CC(C4)C3C2=O)c2ccccc2n1C (configuration not stated)
Data returned: inactive

Data request: Would you mind doing CCn1nnnc1SCC(=O)c1ccc(C)cc1C as well?
Data returned: active

Data request: Now try COc1ccc(C(=O)CSc2nnnn2C)c(OC)c1 .
Data returned: inactive

Data request: Same read-out for CCn1c(C)nc2cc(C(=O)NNS(=O)(=O)c3ccc(C)cc3C)ccc21 ?
Data returned: inactive

----------
assay: STAT1 signaling activators, primary screen, cell-based, HTS, luciferase reporter (AID 932); details: NIH 3T3 STAT1-luciferase reporter, IFN-gamma, luminescence; at 5.5 µM; active compounds read high; 100% = IFN-gamma alone, no compound;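 also: raw ratio to IFN-gamma control signal so 100% means no change and 0% no light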
Among all 200,000 compounds or so, about 5,100 (2.5%) were called active. For the sample, actives were picked, then their nearest neighbours and some compounds at random.
property: activation (% of control) (%)
Give the quantity in %, number only.

As a guide, the following entries are already answered.
substance_smiles: c1ccc(CCc2nc(-c3ccncc3)no2)cc1
activation (% of control) (%): 117
--
substance_smiles: N#Cc1ccccc1NC(=O)COc1c(Br)cc(Br)c2cccnc12
activation (% of control) (%): 77.3
--
substance_smiles: Cc1cccc(N2CCN(C(=O)/C=C/c3ccco3)CC2)c1C
activation (% of control) (%): 99.5
--
substance_smiles: COc1cc(C(=O)NCc2ccc3c(c2)cc(C)n3C)cc(OC)c1OC
activation (% of control) (%): 89.2
--
substance_smiles: O=C(CSc1nnc(-c2cnccn2)n1Cc1ccco1)c1ccc(Cl)c(Cl)c1
activation (% of control) (%): 94.7
--
substance_smiles: CCc1ccc(CN(C)C(=O)CCc2nnc(-c3ccc(-c4ccccc4)cc3)o2)nc1
activation (% of control) (%): 93.4
--
substance_smiles: Cc1nn(-c2ccccc2)c(NC(=O)c2cccs2)c(-c2ccc(Cl)cc2)c1=O
activation (% of control) (%): 107
--
substance_smiles: Cc1ccc(-c2nc3ccccc3[nH]2)cc1N
activation (% of control) (%): 118
--
substance_smiles: CC(C)(C)c1ccc(/C=C/C(=O)Nc2ncccn2)cc1
activation (% of control) (%): 138
--
substance_smiles: O=C(/C=C/c1ccc(Cl)cc1)Nc1ccc(S(=O)(=O)Nc2ncccn2)cc1
activation (% of control) (%): 107

Next up:
Data request: // lookup activation (% of control) for O=C(CSc1ccsc1[N+](=O)[O-])N1CCCCC1
Data returned: 94.8

----------
experiment: STAT1 signaling activators, primary screen, cell-based, HTS, luciferase reporter (AID 932); settings: NIH 3T3 STAT1-luciferase reporter, IFN-gamma, luminescence; at 5.5 µM; 100% = IFN-gamma alone, no compound;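 also: raw ratio to IFN-gamma control signal so 100% means no change and 0% no light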
Out of some 200,000 compounds screened, about 5,100 (2.5%) were called active.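 How the source made its calls: active means activation above the screen-wide mean activation plus 3 SD (cut at about 130% in these data); inactive means the rest.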 This is one part of a sample in which actives are shown more often than they occur.
Outcome field: choose from active, inactive

compound: NS(=O)(=O)c1ccc(CCNC(=O)CCCn2c(SCC(=O)N3CCCC3)nc3ccsc3c2=O)cc1
label: inactive

compound: COCCCNC(=S)N1CCCC(c2nc3cc(C)c(C)cc3[nH]2)C1 (stereo unspecified)
label: active

compound: O=C1/C(=C\c2ccccc2Cl)SC(=S)N1CCC(=O)N1CCCc2ccccc21
label: inactive

compound: Cn1c(=NC(=O)c2ccco2)sc2cccc(F)c21
label: active

compound: Cc1[nH]n(-c2ccccc2)c(=O)c1/C=N/NC(=O)c1ccoc1C
label: active

compound: Cc1cc(C)c(C#N)c(N2CCC(C(N)=O)CC2)n1
label: inactive

compound: O=C1COc2ccc(C(=O)COC(=O)c3cccnc3Cl)cc2N1
label: inactive

compound: C=C(C)CSc1nc(N)c2c3c(sc2n1)CCC3
label: active

compound: COc1cc(OC)cc(-c2nc(=S)n3ccsc3n2)c1
label: inactive

compound: COc1ccc(/C=N/NC(=O)c2cccc(C(F)(F)F)c2)cc1
label: inactive

Data request: What did this assay record as the result for O=C(Nc1ccccc1)c1cc2ccccc2[nH]1 ?
Data returned: active

Data request: And then Cc1ccc(S(=O)(=O)NCCc2nnc3ccc(SCc4cccnc4)nn23)cc1 , what is it?
Data returned: inactive

Data request: Same lookup for CSc1ccc(/C=N\NC(=O)COc2ccc(Cl)cc2Br)cc1 , please.
Data returned: inactive

Data request: Next: O=C(Nc1ccc2sc3ccccc3c(=O)c2c1)c1ccccc1Cl
Data returned: active

Data request: O=C(CSc1nnnn1-c1ccc(O)cc1)N1N=C(c2ccc3ccccc3c2)CC1c1ccccc1 (stereo unspecified) , same question.
Data returned: inactive

Data request: Now give it for Cn1c(=NC(=O)C2CC2)sc2cc(F)cc(F)c21 too.
Data returned: inactive

Data request: Would you kindly repeat that for Cc1c(Cl)cccc1NC(=S)N(Cc1ccccc1)Cc1cccnc1 ?
Data returned: inactive

Data request: Can you check CCOc1ccc2nc(/N=C/c3nc(-c4ccccc4)oc3O)sc2c1 next?
Data returned: inactive

Data request: Similarly, Cc1ccc(NC(=O)CSc2nnc(COc3ccccc3C)o2)cc1 ?
Data returned: inactive

Data request: One more compound: Cc1nc2nc[nH]n2c(=O)c1C/C=C/c1ccccc1
Data returned: inactive

Data request: Would you mind doing Cc1nc2sc(C(=O)c3ccccc3)c(N)c2c2c1CCCC2 as well?
Data returned: inactive

----------
experiment: STAT1 signaling activators, primary screen, cell-based, HTS, luciferase reporter (AID 932); conditions: NIH 3T3 STAT1-luciferase reporter, IFN-gamma, luminescence; at 5.5 µM; 100% = IFN-gamma alone, no compound;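 also: raw ratio to IFN-gamma control signal so 100% means no change and 0% no light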
The campaign covered roughly 200,000 compounds. About 5,100 (2.5%) were called active.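 How the source made its calls: active means activation above the screen-wide mean activation plus 3 SD (cut at about 130% in these data); inactive means the rest.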 The full list was thinned out, with actives kept by preference.
The reply should be one of these categories: class 1 for active, class 0 for inactive

# example entries with known answers
compound: Cc1ccc(OCCOCCOc2ccc(Br)cc2/C=N\NC(=O)c2ccncc2)cc1
label: class 0
--
compound: COc1cc(SC)ccc1C(=O)Nc1cc(C)ccn1
label: class 0
--
compound: COc1ccc(-c2csc(NC(=O)COC(=O)c3ccc(Br)o3)n2)cc1
label: class 1
--
compound: CN(C)CCN=c1cc(-c2ccccc2)oc2ccc(Cl)cc12
label: class 1

# ---- query compound ----
Data request: # fetch the recorded call for CCn1c(CSCc2c(Cl)cccc2Cl)n[nH]c1=S here
Data returned: class 0
